Hi there, I'd appreciate the recorded growth inhibition for every entry that follows.
# protocolNotes: NCI Yeast Anticancer Drug Screen. Data for the mec2-1 strain (AID 157)
# reportedConditions: S. cerevisiae mec2-1 strain, at 33.0 µM, active compounds read high
The panel holds about 79,000 compounds, 15% with a hit somewhere; the sample as a whole holds those more often. Activity calls are given as the source filed them. No stated cut-off is given here; in the data, active means growth inhibition above about 70%; inactive means the rest.

| compound | measurementLabel | testValue |
| --- | --- | --- |
| CN(C)CCNC(=O)c1cccc2nc3c(ccc4ccccc43)nc12 | growth inhibition | 25% (inactive) |
| Cc1[nH]nc(C(F)(F)F)c1N=NN(C)C | growth inhibition | 99% (active) |
| CC[C@]1(O)C[C@H]2CN(CCc3c([nH]c4ccccc34)[C@@](C(=O)OC)(c3cc4c(cc3OC)N(C)[C@H]3[C@@](O)(C(=O)OC)[C@H](OC(C)=O)[C@]5(CC)C=CCN6CC[C@]43[C@@H]65)C2)C1 | growth inhibition | 1% (inactive) |

For each listed entry, give its growth inhibition.
1. O=CC(=C(I)I)c1ccccc1
2. CCN(CC)c1cccc(Nc2nc3ccccc3s2)c1
3. OC(c1ccc(Br)cc1)(c1cccs1)C1CC1 (configuration not stated)
4. COC(=O)C1(N2CCOCC2)CCC([C@@H](c2ccccc2)C(C)[N+](=O)[O-])C1 (some centres not stated)
5. O=C(CCCN1CCC2(CC1)OC(=O)N(c1ccccc1)C2=O)c1ccccc1
6. CCCC(=O)OC(OC(=O)CCC)c1ccc([N+](=O)[O-])o1
7. O=C1C(Br)=CC(Br)(Br)C=C1Br

["99% (active)", "16% (inactive)", "99% (active)", "4% (inactive)", "61% (inactive)", "5% (inactive)", "99% (active)"]

Please give growth inhibition, item by item, for the list that follows.
1. Cc1cnccc1N=Nc1ccc(N(C)C)cc1
2. CN(C)/N=N/c1nc[nH]c1C(N)=O
3. CN(C)N=Nc1ccc(NC=O)cc1
4. C#CC1=CC(=O)C(OC)=CC1=O
5. CCOC(=O)C1=C(C)NC(C)=C(C(=O)OCC)C1c1cccc([N+](=O)[O-])c1
6. O=C1OC(/C=C/c2ccccc2)Sc2ccccc21 (configuration not stated)

["-4% (inactive)", "5% (inactive)", "90% (active)", "99% (active)", "30% (inactive)", "10% (inactive)"]

Return reported growth inhibition values for all items listed beneath this line.
1. CC[C@@]1(OC(=O)CN(C)C)C(=O)OCc2c1cc1n(c2=O)Cc2cc3ccccc3nc2-1
2. CCOc1nc(OCC)nc(-c2cccn2-c2ccccc2)n1
3. Cc1ccc(N(C=O)c2c([N+](=O)[O-])cc([N+](=O)[O-])c3c2=[N+]([O-])CN=3)cc1

94% (active)
12% (inactive)
95% (active)
